Data origin: ChEMBL document CHEMBL1201862

Parameter AC50: see the listing below.
- assay.system: Microphthalmia-associated transcription factor (Homo sapiens)
- Sequence (O75030 whole entry): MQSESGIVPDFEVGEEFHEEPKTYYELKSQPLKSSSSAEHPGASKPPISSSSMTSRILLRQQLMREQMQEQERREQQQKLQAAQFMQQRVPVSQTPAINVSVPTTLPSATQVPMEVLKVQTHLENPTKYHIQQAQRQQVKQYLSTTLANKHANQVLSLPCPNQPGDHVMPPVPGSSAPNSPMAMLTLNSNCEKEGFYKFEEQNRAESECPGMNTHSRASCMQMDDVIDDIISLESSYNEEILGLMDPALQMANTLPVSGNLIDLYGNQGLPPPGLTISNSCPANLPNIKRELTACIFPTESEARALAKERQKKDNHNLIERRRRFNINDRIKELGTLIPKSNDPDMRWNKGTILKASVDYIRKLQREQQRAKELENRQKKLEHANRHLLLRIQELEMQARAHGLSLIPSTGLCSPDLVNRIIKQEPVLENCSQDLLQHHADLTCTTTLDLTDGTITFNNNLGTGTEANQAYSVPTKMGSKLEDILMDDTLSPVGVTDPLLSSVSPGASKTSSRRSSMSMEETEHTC
- experimental.details: reducers of TRPM1 reporter luminescence, concentration series – cell-based, SK-MEL-5, cherry-picked, set 3, MITF inhibitor project, dose response (AID 493073);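 note: SK-MEL-5 melanoma cells with luciferase driven by the MITF target TRPM1 promoter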
- Assay type: functional
The source made the active and inactive calls.
property.label: AC50

[[record]]
compound_string = "COCCn1c(C)cc(C(=O)CSc2nnc(C)s2)c1C"
endpoint_result = "3.04 µM (active)"

[[record]]
compound_string = "CCN1CCc2c(sc(NC(=O)c3ccc(S(=O)(=O)N4CCCC4)cc3)c2C(=O)NC)C1"
endpoint_result = "9.14 µM (active)"

[[record]]
compound_string = "CC(C)Nc1c([N+](=O)[O-])nn(C)[n+]1[O-]"
endpoint_result = "299 µM (active)"

[[record]]
compound_string = "COc1ccccc1N(C(=O)CCl)c1cn(C(C)=O)c2ccccc12"
endpoint_result = "8.82 µM (active)"

[[record]]
compound_string = "COCCN(CC(=O)NC1CCCCC1)C(=O)/C=C/C(=O)c1ccc(OC)cc1O"
endpoint_result = "5.48 µM (active)"


---

Parameter AC50: see the listing below.
- assay.system: UniProtKB P43351
- Sequence (P43351 whole entry): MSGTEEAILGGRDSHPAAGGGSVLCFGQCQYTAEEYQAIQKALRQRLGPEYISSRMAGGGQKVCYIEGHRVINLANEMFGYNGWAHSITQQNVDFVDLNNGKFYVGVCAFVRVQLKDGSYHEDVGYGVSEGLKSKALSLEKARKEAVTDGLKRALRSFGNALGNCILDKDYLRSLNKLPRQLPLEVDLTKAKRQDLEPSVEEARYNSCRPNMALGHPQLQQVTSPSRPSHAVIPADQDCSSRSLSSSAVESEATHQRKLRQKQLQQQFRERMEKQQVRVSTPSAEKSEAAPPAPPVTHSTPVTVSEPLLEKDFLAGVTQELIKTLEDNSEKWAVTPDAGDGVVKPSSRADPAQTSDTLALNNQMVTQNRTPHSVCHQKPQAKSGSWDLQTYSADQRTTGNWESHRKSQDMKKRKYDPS
- Type: functional, biochemical
Calls of active or inactive are those of the source.
property.label: AC50

[[record]]
compound = "Cc1cc(N2CCN(C)CC2)nc2ccc(NC(S)=NCCCN3CCN(C)CC3)cc12"
assay_system = "UniProtKB P43351"
property_label = "AC50"
endpoint_result = "3.59 µM (active)"

[[record]]
compound = "O=C1c2cccc3cc([N+](=O)[O-])cc(c23)C(=O)N1CCN1CCCC1 [PINAFIDE]"
assay_system = "UniProtKB P43351"
property_label = "AC50"
endpoint_result = "8.44 µM (active)"

[[record]]
compound = "Cc1ccc2nc3c(c(Nc4ccc(O)cc4)c2c1)CCC3"
assay_system = "UniProtKB P43351"
property_label = "AC50"
endpoint_result = "20.5 µM (active)"

[[record]]
compound = "Cc1cc(-c2cc(NC=O)c3ncc(-c4cccc(C(=O)NCCN(C)C)c4)n3c2)cc(C)c1O"
assay_system = "UniProtKB P43351"
property_label = "AC50"
endpoint_result = "1.54 µM (active)"


---

Parameter IC50: see the listing below.
- assay.system: Induced myeloid leukemia cell differentiation protein Mcl-1 (Homo sapiens)
- Sequence (Q07820 whole entry): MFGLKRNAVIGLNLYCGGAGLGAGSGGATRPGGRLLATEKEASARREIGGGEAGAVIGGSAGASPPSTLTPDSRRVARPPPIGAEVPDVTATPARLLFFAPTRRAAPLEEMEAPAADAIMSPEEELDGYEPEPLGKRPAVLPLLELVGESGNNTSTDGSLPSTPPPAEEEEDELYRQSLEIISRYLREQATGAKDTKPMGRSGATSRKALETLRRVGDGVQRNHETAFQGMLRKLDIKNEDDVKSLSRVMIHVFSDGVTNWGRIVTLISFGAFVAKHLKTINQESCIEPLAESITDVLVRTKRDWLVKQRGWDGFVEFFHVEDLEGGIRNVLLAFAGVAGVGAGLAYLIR
- Format: functional
Active and inactive are the calls of the source.
property.label: IC50

[[record]]
molecule = "O=C1NN(c2cccc(F)c2)C(=O)/C1=C1\\C(=O)Nc2ccccc21"
property_label = "IC50"
endpoint_result = "< 400 nM (active)"

[[record]]
molecule = "C=C(C)C(=O)Nc1cccc(C2=NOC3(C2)C[C@H](C(N)=O)N(C(=O)C(c2ccccc2)c2ccccc2)C3)c1 (some centres not stated)"
property_label = "IC50"
endpoint_result = "3120 nM (active)"

[[record]]
molecule = "CCC(C)N1C(=O)/C(=C/c2ccc3c(c2)CCN3CCCCl)C(=O)NC1=S (configuration not stated)"
property_label = "IC50"
endpoint_result = "5310 nM (active)"

[[record]]
molecule = "O=C(O)c1cccc(-c2ccc(/C=c3/sc4nc5ccccc5n4c3=O)o2)c1"
property_label = "IC50"
endpoint_result = "1740 nM (active)"

[[record]]
molecule = "CCCCn1c(NCc2ccc(N(C)C)cc2)nc2ccccc21"
property_label = "IC50"
endpoint_result = "1260 nM (active)"

[[record]]
molecule = "CCN(CC)c1ccc(NC2=C(Cl)C(=O)c3ccccc3C2=O)cc1"
property_label = "IC50"
endpoint_result = "1470 nM (active)"

[[record]]
molecule = "O=C(Nc1ccc(Nc2ccncc2)cc1)c1ccc(Nc2ccnc3ccc([N+](=O)[O-])cc23)cc1[N+](=O)[O-]"
property_label = "IC50"
endpoint_result = "2460 nM (active)"


---

Parameter IC50: see the listing below.
- assay.system: UniProt:P00734
- experimental.details: Thrombin 1536 HTS Dose Response Confirmation. [Related pubchem assays: 1046 (Thrombin 1536 HTS; hits were confirmed in this assay)]
- Format: functional
Activity calls are given as the source filed them.
property.label: IC50

[[record]]
compound_string = "OCCCCCN=c1cc(-c2ccccc2)oc2ccc(Cl)cc12"
endpoint_result = "3.04 µM (active)"

[[record]]
compound_string = "O=C(Nc1nc(-c2cccs2)cs1)c1ccc(Cl)cc1"
endpoint_result = "4.5 µM (active)"

[[record]]
compound_string = "CCC(=O)n1nc(-c2ccccc2)nc1SCC(=O)Nc1ccc(C)cc1"
endpoint_result = "1.22 µM (active)"

[[record]]
compound_string = "Cc1ccc(S(=O)(=O)Nc2cccnc2Oc2ccc(Cl)cc2)cc1"
endpoint_result = "> 50 µM (not active)"


---

- experimental.details: Trypanosoma cruzi growth suppression in host cells – NIH3T3 host cells, beta-gal luminescence, confirmation (AID 2044);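 note: intracellular parasites grown in NIH/3T3 mouse fibroblasts as host cells; luminescent beta-galactosidase reporter signal from transgenic T. cruzi replicating inside host cells; inhibitors lower the luminescence signal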
- Assay type: functional, cell-based
Calls of active or inactive are those of the source.
property.label: EC50

[[record]]
compound = "Cc1cc(C)n(-c2nc(SCCN(C)C)c3c4c(sc3n2)COC(C)(C)C4)n1"
property_label = "EC50"
endpoint_result = "836 nM (active)"

[[record]]
compound = "Cc1ccc2nc3c(c(Nc4ccc(O)cc4)c2c1)CCC3"
property_label = "EC50"
endpoint_result = "1060 nM (active)"

[[record]]
compound = "Cc1ccc(-c2cc3cccc[n+]3cc2-c2ccc(C)cc2)cc1"
property_label = "EC50"
endpoint_result = "< 100 nM (active)"

[[record]]
compound = "COCc1cc(CN2CCCC(C(=O)Nc3cccc(-n4cnnn4)c3)C2)ccc1OC (stereo not given)"
property_label = "EC50"
endpoint_result = "< 100 nM (active)"

[[record]]
compound = "Fc1ccc(Cn2nnnc2C(c2ccc(Cl)cc2)N2CC=C(c3ccc(F)cc3)CC2)cc1 (stereo not given)"
property_label = "EC50"
endpoint_result = "1340 nM (active)"


---

- assay.system: Small ubiquitin-related modifier 1 (Homo sapiens)
- Sequence (P63165 whole entry): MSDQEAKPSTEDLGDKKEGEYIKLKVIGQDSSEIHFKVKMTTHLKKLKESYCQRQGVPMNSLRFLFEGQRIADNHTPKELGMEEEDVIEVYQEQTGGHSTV
- experimental.details: SUMO1 protein-protein binding blockers, potency – biochemical, FRET, dose response (AID 624383)
- Format: functional
- details: read-out: IC50_Mean
Calls of active or inactive are those of the source.
property.label: IC50

[[record]]
compound_string = "Cc1ccc(NC(=O)CSc2nc3ccccc3c3nc(CCc4c(C)n[nH]c4C)nn23)cc1F"
assay_system = "Small ubiquitin-related modifier 1 (Homo sapiens)"
property_label = "IC50"
endpoint_result = "3.78 µM (active)"

[[record]]
compound_string = "Cc1cc(C(=O)N/N=C/c2ccc(-c3ccc([N+](=O)[O-])cc3Cl)o2)[nH]n1"
assay_system = "Small ubiquitin-related modifier 1 (Homo sapiens)"
property_label = "IC50"
endpoint_result = "13.8 µM (active)"

[[record]]
compound_string = "Cc1cc(-c2cc(NC=O)c3ncc(-c4cccc(C(=O)NCCN(C)C)c4)n3c2)cc(C)c1O"
assay_system = "Small ubiquitin-related modifier 1 (Homo sapiens)"
property_label = "IC50"
endpoint_result = "20.2 µM (inactive)"

[[record]]
compound_string = "O=C(Nc1ccc(Nc2ccncc2)cc1)c1ccc(Nc2ccnc3ccc([N+](=O)[O-])cc23)cc1[N+](=O)[O-]"
assay_system = "Small ubiquitin-related modifier 1 (Homo sapiens)"
property_label = "IC50"
endpoint_result = "10.3 µM (active)"

[[record]]
compound_string = "O=C(O)c1cccc(-c2ccc(/C=c3/sc4nc5ccccc5n4c3=O)o2)c1"
assay_system = "Small ubiquitin-related modifier 1 (Homo sapiens)"
property_label = "IC50"
endpoint_result = "8.7 µM (active)"

[[record]]
compound_string = "O=C(Nc1cc(C(=O)Nc2ccccc2C(=O)O)cc(C(=O)Nc2ccccc2C(=O)O)c1)c1ccccc1"
assay_system = "Small ubiquitin-related modifier 1 (Homo sapiens)"
property_label = "IC50"
endpoint_result = "7.45 µM (active)"


---

- assay.system: DNA dC->dU-editing enzyme APOBEC-3G (Homo sapiens, UniProt Q9HC16);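 note: Dose-response counterscreen measuring inhibition of APOBEC3G DNA deaminase activity, run while confirming APOBEC3A inhibitors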
- Sequence (Q9HC16 whole entry): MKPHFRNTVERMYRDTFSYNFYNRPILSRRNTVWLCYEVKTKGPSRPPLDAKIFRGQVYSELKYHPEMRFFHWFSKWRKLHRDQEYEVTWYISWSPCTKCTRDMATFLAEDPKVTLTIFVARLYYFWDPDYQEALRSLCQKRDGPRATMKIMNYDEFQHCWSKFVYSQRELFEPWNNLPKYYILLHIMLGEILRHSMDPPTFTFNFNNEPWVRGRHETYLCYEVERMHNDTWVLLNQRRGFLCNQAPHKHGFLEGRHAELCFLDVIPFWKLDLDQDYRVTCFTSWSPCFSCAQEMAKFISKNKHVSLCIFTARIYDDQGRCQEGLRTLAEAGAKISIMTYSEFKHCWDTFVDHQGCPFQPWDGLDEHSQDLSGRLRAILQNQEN
- Assay type: functional
Calls of active or inactive are those of the source.
Classes used: 1 for active, 0 for inactive

[[record]]
compound = "C=CC[n+]1c2n(c3ccccc3c1=O)CCCCC2"
class_assignment = 1

[[record]]
compound = "O=C(O)c1cccc(-n2cccc2/C=C2\\NC(=O)N(Cc3ccc(F)cc3)C2=O)c1"
class_assignment = 1

[[record]]
compound = "C=CCn1c(C)c(/C=C/c2cc[n+](C)cc2)c2ccccc21"
class_assignment = 1

[[record]]
compound = "CC[n+]1c(C)n(CC(O)COCC2CC=CCC2)c2ccccc21 (stereo unspecified)"
class_assignment = 1

[[record]]
compound = "CC[n+]1c(/C=C2/C=CN(CCCS(=O)(=O)[O-])c3ccccc32)sc2ccccc21"
class_assignment = 1

[[record]]
compound = "O=C(O)c1cc2nc(-c3cccs3)cc(C(F)(F)F)n2n1"
class_assignment = 0


---

- experimental.details: Luminescence Cell-Based Dose Retest to Confirm Inhibitors of Cancer Stem Cells. [Related pubchem assays (depositor defined):AID2717, AID2721]
- Format: functional
- details: Homo sapiens
Calls of active or inactive are those of the source.
Parameter AC50: see the listing below.
property.label: AC50

[[record]]
compound = "Cc1nn(-c2ccccc2)c(C)c1/C=N/n1c(S)nnc1-c1ccc(C(C)(C)C)cc1"
property_label = "AC50"
endpoint_result = "5.78 µM (active)"

[[record]]
compound = "CC1=C(C(=O)OC2CCCCCCC2)C(c2cc3c(cc2Br)OCO3)CC(=O)N1 (centres undefined)"
property_label = "AC50"
endpoint_result = "3.59 µM (active)"

[[record]]
compound = "Cc1cc(C(=O)NNc2ccc(Cl)cc2)no1"
property_label = "AC50"
endpoint_result = "1.35 µM (active)"

[[record]]
compound = "O=C(Nc1ccc(C(O)(C(F)(F)F)C(F)(F)F)cc1)c1ccc(Cl)c([N+](=O)[O-])c1"
property_label = "AC50"
endpoint_result = "5.95 µM (active)"

